- experimental_system: histaminergic H1 receptor (Homo sapiens)
- Sequence (P35367 whole entry): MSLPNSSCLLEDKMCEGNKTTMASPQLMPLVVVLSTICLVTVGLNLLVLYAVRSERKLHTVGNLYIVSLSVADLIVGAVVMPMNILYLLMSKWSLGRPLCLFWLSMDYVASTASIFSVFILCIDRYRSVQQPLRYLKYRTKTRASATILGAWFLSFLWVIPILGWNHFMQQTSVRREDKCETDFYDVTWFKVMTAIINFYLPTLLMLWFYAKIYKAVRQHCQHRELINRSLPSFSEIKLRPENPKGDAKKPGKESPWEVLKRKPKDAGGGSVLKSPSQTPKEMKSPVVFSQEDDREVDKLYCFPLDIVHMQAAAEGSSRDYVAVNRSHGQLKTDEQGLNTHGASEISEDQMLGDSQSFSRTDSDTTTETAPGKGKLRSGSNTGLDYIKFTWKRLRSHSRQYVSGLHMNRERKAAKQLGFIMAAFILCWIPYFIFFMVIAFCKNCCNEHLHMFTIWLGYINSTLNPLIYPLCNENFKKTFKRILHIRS
- assay_name: Binding assay H1 (h), [3H]pyrilamine, HEK-293 cells
- Design: expressed in transfected cells; host or cells: HEK-293 cells
- measurement_conditions: read-out: H1 [%]
Outcome: 1 for inhibition at 1 µM of at least 90%; 0 for anything lower.

Evaluate O=S(=O)(NCCCN1CCN(c2nsc3ccccc23)CC1)c1ccc(Br)cc1 : inhibition at 1 µM at minimum 90%?
0

Evaluate O=S(=O)(NCCCCN1CCC(c2noc3cc(F)ccc23)CC1)c1ccc2ccccc2c1 : inhibition at 1 µM at minimum 90%?
0

Evaluate O=S(=O)(NCCCN1CCC(c2noc3cc(F)ccc23)CC1)c1cc2ccc(Cl)cc2s1 : inhibition at 1 µM at minimum 90%?
1

Evaluate O=S(=O)(NCCCCN1CCN(c2cccc3[nH]ccc23)CC1)c1ccc(F)c(F)c1 : inhibition at 1 µM at minimum 90%?
0

Evaluate Cc1[nH]c2ccc(Cl)cc2c1C1=CCN(CCCCNS(=O)(=O)c2ccc(Cl)cc2)CC1 : inhibition at 1 µM at minimum 90%?
0

Evaluate O=S(=O)(NCCCN1CCN(c2nsc3ccccc23)CC1)c1ccc2cn[nH]c2c1 : inhibition at 1 µM at minimum 90%?
1

Evaluate Cc1cccc(S(=O)(=O)NCCN2CCN(c3nsc4ccccc34)CC2)c1 : inhibition at 1 µM at minimum 90%?
0

Evaluate O=S(=O)(NCCN1CCN(c2nsc3ccccc23)CC1)c1cccc2ccccc12 : inhibition at 1 µM at minimum 90%?
0

Evaluate O=S(=O)(NCCCCN1CCN(c2noc3ccccc23)CC1)c1ccc2cc(Cl)ccc2c1 : inhibition at 1 µM at minimum 90%?
1

Evaluate O=S(=O)(NCCCN1CCC(c2noc3cc(F)ccc23)CC1)c1cnc2ccccn12 : inhibition at 1 µM at minimum 90%?
0

Evaluate O=c1[nH]c2cccc(N3CCN(CCCCNS(=O)(=O)c4cccc5ccccc45)CC3)c2[nH]1 : inhibition at 1 µM at minimum 90%?
0

Evaluate O=S(=O)(NCCCCN1CCN(c2cccc3[nH]ccc23)CC1)c1cnc2ccccn12 : inhibition at 1 µM at minimum 90%?
0

Evaluate Cc1c(S(=O)(=O)NCCCN2CCC(c3noc4cc(F)ccc34)CC2)sc2ccc(F)cc12 : inhibition at 1 µM at minimum 90%?
1

Evaluate O=S(=O)(NCCCN1CCN(c2nsc3ccccc23)CC1)c1ccc(F)c(Cl)c1 : inhibition at 1 µM at minimum 90%?
1

Evaluate O=S(=O)(NCCCN1CCN(c2nsc3ccccc23)CC1)c1ccc(-c2ccccc2)cc1 : inhibition at 1 µM at minimum 90%?
1

====

- Tested on: adrenergic α1 receptor
- assay_name: Binding assay α1 (non-selective), [3H]prazosin, rat cerebral cortex
- measurement_conditions: percent inhibition of control specific binding; compounds tested at 1×10^−6 M
So I've got a bunch of compounds here, and I need their α1 [%] values.
Number only, in %; omit the unit.

// Input: O=S(=O)(NCCCCN1CCN(c2cccc3[nH]ccc23)CC1)c1c[nH]c2ncccc12 . Output its α1 [%] only.
101

// Input: O=S(=O)(NCCCCN1CCC(c2noc3cc(F)ccc23)CC1)c1cnc2ccccn12 . Output its α1 [%] only.
103

// Input: O=S(=O)(NCCCCN1CCN(c2cccc3c2OCCO3)CC1)c1cccc2ccccc12 . Output its α1 [%] only.
96

// Input: O=S(=O)(NCCCCN1CCN(c2cccc3c2OCCO3)CC1)c1ccc2cn[nH]c2c1 . Output its α1 [%] only.
94

====

- experimental_system: serotoninergic 5-HT6 receptor (Homo sapiens, UniProt P50406)
- Sequence (P50406 whole entry): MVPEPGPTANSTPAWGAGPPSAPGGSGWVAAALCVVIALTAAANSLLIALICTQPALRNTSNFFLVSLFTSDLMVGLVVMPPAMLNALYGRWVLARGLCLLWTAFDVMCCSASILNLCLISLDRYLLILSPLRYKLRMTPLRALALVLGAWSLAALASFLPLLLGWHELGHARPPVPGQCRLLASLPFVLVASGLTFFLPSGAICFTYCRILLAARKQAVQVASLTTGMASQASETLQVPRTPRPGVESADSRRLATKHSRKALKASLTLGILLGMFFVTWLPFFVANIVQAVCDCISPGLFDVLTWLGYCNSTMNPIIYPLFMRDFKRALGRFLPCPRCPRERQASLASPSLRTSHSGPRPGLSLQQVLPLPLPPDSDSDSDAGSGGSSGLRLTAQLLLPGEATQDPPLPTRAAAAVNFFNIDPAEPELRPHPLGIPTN
- assay_name: Binding assay 5-HT6 (h), [3H]LSD, CHO cells
- Set-up: expressed in transfected cells; host or cells: CHO cells
- measurement_conditions: read-out: 5-HT6
Outcome: 1 (yes) for inhibition at 1 µM of at least 80%; 0 (no) for anything lower.

Evaluate O=S(=O)(NCCCCN1CCC(c2noc3cc(F)ccc23)CC1)c1cc2ccccc2s1 : inhibition at 1 µM at minimum 80%?
1 (yes)

Evaluate Cc1c(S(=O)(=O)NCCCCN2CCN(c3cccc4[nH]c(=O)[nH]c34)CC2)sc2ccc(Cl)cc12 : inhibition at 1 µM at minimum 80%?
0 (no)

Evaluate O=S(=O)(NCCCCN1CCN(c2noc3ccccc23)CC1)c1ccc2ccccc2c1 : inhibition at 1 µM at minimum 80%?
1 (yes)

Evaluate Cc1[nH]c2ccc(Cl)cc2c1C1=CCN(CCCCNS(=O)(=O)c2ccc(Cl)cc2)CC1 : inhibition at 1 µM at minimum 80%?
1 (yes)

Evaluate O=S(=O)(NCCCN1CCN(c2nsc3ccccc23)CC1)c1cccc(O)c1 : inhibition at 1 µM at minimum 80%?
0 (no)

Evaluate O=S(=O)(NCCCN1CCN(c2nsc3ccccc23)CC1)c1cccc(Cl)c1 : inhibition at 1 µM at minimum 80%?
1 (yes)

Evaluate O=S(=O)(NCCCCN1CCN(c2cccc3c2OCCO3)CC1)c1ccc2ccccc2c1 : inhibition at 1 µM at minimum 80%?
0 (no)

Evaluate O=S(=O)(NCCCCN1CCN(c2cccc3[nH]ccc23)CC1)c1c[nH]c2ncccc12 : inhibition at 1 µM at minimum 80%?
0 (no)

Evaluate O=S(=O)(NCCCCN1CCN(c2cccc3c2OCCO3)CC1)c1ccc2cc(Cl)ccc2c1 : inhibition at 1 µM at minimum 80%?
0 (no)

Evaluate O=S(=O)(NCCCN1CCN(c2cccc3c2OCCO3)CC1)c1ccc(F)cc1 : inhibition at 1 µM at minimum 80%?
0 (no)

Evaluate O=c1[nH]c2ccc(S(=O)(=O)NCCCN3CCN(c4nsc5ccccc45)CC3)cc2o1 : inhibition at 1 µM at minimum 80%?
1 (yes)

Evaluate O=S(=O)(NCCCCN1CCN(c2nsc3ccccc23)CC1)c1cccc2ccccc12 : inhibition at 1 µM at minimum 80%?
1 (yes)

Evaluate O=S(=O)(NCCCCN1CCN(c2noc3ccccc23)CC1)c1cccc(C(F)(F)F)c1 : inhibition at 1 µM at minimum 80%?
1 (yes)

Evaluate O=S(=O)(NCCCCN1CCN(c2noc3ccccc23)CC1)c1cnc2ccccn12 : inhibition at 1 µM at minimum 80%?
0 (no)

Evaluate O=S(=O)(NCCCN1CCN(c2cccc3c2OCCO3)CC1)c1ccc2c(c1)CCO2 : inhibition at 1 µM at minimum 80%?
0 (no)

Evaluate O=S(=O)(NCCCCN1CCN(c2cccc3c2OCCO3)CC1)c1cc2ccccc2s1 : inhibition at 1 µM at minimum 80%?
0 (no)

Evaluate CC(C)(C)c1ccc(S(=O)(=O)NCCCCN2CCN(c3nsc4ccccc34)CC2)cc1 : inhibition at 1 µM at minimum 80%?
0 (no)

Evaluate O=S(=O)(NCCCCN1CCN(c2nsc3ccccc23)CC1)c1ccc(Cl)s1 : inhibition at 1 µM at minimum 80%?
0 (no)

Evaluate Cc1cccc(S(=O)(=O)NCCN2CCN(c3nsc4ccccc34)CC2)c1 : inhibition at 1 µM at minimum 80%?
0 (no)

Evaluate O=S(=O)(NCCCN1CCC(c2noc3cc(F)ccc23)CC1)c1cc2cccnc2[nH]1 : inhibition at 1 µM at minimum 80%?
1 (yes)

Evaluate O=S(=O)(NCCCCN1CCN(c2noc3ccccc23)CC1)c1ccc2cc(Cl)ccc2c1 : inhibition at 1 µM at minimum 80%?
1 (yes)

Evaluate O=S(=O)(NCCCCN1CCN(c2cccc3c2OCCO3)CC1)c1ccc2c(c1)OCO2 : inhibition at 1 µM at minimum 80%?
0 (no)

Evaluate O=S(=O)(NCCN1CCC(c2noc3cc(F)ccc23)CC1)c1ccc2ccccc2c1 : inhibition at 1 µM at minimum 80%?
0 (no)

Evaluate O=S(=O)(NCCCN1CCN(c2nsc3ccccc23)CC1)c1ccc(-c2ccccc2)cc1 : inhibition at 1 µM at minimum 80%?
1 (yes)

Evaluate O=S(=O)(NCCCN1CCC(c2noc3cc(F)ccc23)CC1)c1ccc(OC(F)(F)F)cc1 : inhibition at 1 µM at minimum 80%?
1 (yes)

Evaluate O=S(=O)(NCCCCN1CCN(c2nsc3ccccc23)CC1)c1ccc2c(c1)CCO2 : inhibition at 1 µM at minimum 80%?
0 (no)

Evaluate O=c1[nH]c2cccc(N3CCN(CCCNS(=O)(=O)c4cccc(Cl)c4)CC3)c2[nH]1 : inhibition at 1 µM at minimum 80%?
0 (no)

Evaluate O=S(=O)(NCCCCN1CCC(c2noc3cc(F)ccc23)CC1)c1cccc2ccccc12 : inhibition at 1 µM at minimum 80%?
1 (yes)

Evaluate O=S(=O)(NCCCCN1CCN(c2nsc3ccccc23)CC1)c1ccc2cc(Cl)ccc2c1 : inhibition at 1 µM at minimum 80%?
1 (yes)

Evaluate O=S(=O)(NCCCCN1CCN(c2cccc3c2OCCO3)CC1)c1ccc2cn[nH]c2c1 : inhibition at 1 µM at minimum 80%?
0 (no)

Evaluate O=S(=O)(NCCCN1CCN(c2cccc3c2OCCO3)CC1)c1ccc2ccccc2c1 : inhibition at 1 µM at minimum 80%?
0 (no)

Evaluate Cn1ccc2ccc(S(=O)(=O)NCCCCN3CCC(c4noc5cc(F)ccc45)CC3)cc21 : inhibition at 1 µM at minimum 80%?
1 (yes)
